Molecular target: GRK2 (Homo sapiens, UniProt P25098)
Construct: purchased SignalChem A14-10G
Sequence (P25098 1-689): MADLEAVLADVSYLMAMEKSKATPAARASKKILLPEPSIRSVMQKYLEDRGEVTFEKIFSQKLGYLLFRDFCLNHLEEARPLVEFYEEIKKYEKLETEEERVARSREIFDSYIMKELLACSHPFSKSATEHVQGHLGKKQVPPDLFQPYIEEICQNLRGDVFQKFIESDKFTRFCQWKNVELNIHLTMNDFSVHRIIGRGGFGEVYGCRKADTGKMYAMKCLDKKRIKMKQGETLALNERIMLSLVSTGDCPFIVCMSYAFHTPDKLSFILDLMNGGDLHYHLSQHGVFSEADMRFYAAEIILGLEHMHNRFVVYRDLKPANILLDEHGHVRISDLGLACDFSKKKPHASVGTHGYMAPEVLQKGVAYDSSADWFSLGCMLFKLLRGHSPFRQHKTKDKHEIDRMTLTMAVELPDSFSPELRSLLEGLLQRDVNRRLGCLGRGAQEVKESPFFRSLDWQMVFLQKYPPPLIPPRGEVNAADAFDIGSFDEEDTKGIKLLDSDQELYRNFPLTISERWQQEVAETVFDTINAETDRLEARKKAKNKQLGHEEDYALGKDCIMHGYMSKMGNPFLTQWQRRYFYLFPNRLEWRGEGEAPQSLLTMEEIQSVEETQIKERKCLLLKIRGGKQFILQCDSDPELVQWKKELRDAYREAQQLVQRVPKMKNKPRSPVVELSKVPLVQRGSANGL
Assay: GRK2 Inhibition Assay (TR-FRET, Example 7)
Type: biochemical
Details: Enzyme Assay B, TR-FRET (Example 7); read-out: B: Enzymatic GRK2: IC50 (nM) (Example 7)
Please provide measured IC50 for the entries that follow.
Answers are plain numbers, in nM.

Solved cases below.
## Task Need IC50, item Cn1c(CNc2cccc(C(=O)NCc3cccc(C#N)c3)c2)nnc1-c1ccncn1 [drawing 591]
## Result 12

## Task Entry Cn1c(CNc2cc(C(=O)N[C@@H]3CCOc4c(Cl)cccc43)ccn2)nnc1-c1ccncn1 has what IC50?
## Result 20

## Task What value of measured IC50 is listed for CN(C)CCCn1c(CNc2cccc(C(=O)NCc3c(F)cccc3F)c2)nnc1-c1ccncn1 ?
## Result 170

Hey, quick one: what's IC50 for each of these?
1. Cc1ccn2c(CNC(=O)c3cccc(NCc4nnc(-c5ccncn5)n4C)c3)cnc2c1 [drawing 620]
2. Cn1c(CNc2cccc(C(=O)NCc3cnccc3Cl)c2)nnc1-c1ccncn1 [drawing 570]
3. Cc1cc2c(cc1CNC(=O)c1cccc(NCc3nnc(-c4ccncn4)n3CCO)c1)OCCO2
4. CNc1cc(-c2nnc(CNc3cccc(C(=O)NCc4c(F)cccc4F)c3)n2C)ncn1

## Result
1: 20; 2: 17; 3: 1.4; 4: 4400

Would you be so kind as to report IC50 for each listed record?
1. O=C(N[C@H]1CCOc2c(Cl)cccc21)c1cccc(NCc2nnc(-c3ccncn3)n2CCO)c1
2. O=C(N[C@H]1CCOc2ccccc21)c1cccc(NCc2nnc3n2CCOc2cnccc2-3)c1
3. Cn1c(CNc2cc(C(=O)N[C@H]3CCOc4c(Cl)cccc43)ccn2)nnc1-c1ccncn1
4. Cn1c(CNc2cccc(C(=O)N[C@@H]3CCOc4c(Br)cccc43)c2)nnc1-c1ccncn1

## Result
1. 1.5
2. 2.6
3. 63
4. 13

Give IC50 for each listed item.
1. CCCn1c(CNc2cccc(C(=O)NCc3ccccc3C(F)(F)F)n2)nnc1-c1ccncn1
2. O=C(NCc1cccc2c1OCC2)c1cccc(NCc2nnc(-c3ccncn3)n2CCCO)c1
3. CCCn1c(CNc2cccc(C(=O)NC3(c4ccccc4)CCOCC3)c2)nnc1-c1ccncn1

## Result
[200, 4.2, 22]

Hey, can you go through the list below and give me IC50 for every item?
1. COc1ccc(CNC(=O)c2cccc(NCc3nnc(-c4ccncc4)n3CCO)c2)c(F)c1
2. O=C(NCc1cccnc1C(F)(F)F)c1cccc(NCc2nnc(-c3ccncc3)n2CCO)c1

## Result
1: 4.9; 2: 5.2

Measured values drawn from patent US20230009608A1 for this set.
